- assayed_system: Human full-length diacylglycerol:acylCoA acyltransferase 1 (DGAT-1) (Homo sapiens, UniProt O75907)
- Construct: Human full-length diacylglycerol:acylCoA acyltransferase 1 (DGAT-1) was expressed in Sf9 insect cells; made in house; host or cells: Sf9 insect cells (baculovirus); crude membrane/microsome fraction
- protocol_description: DGAT-1 Reduced Microsome Multidose Assay, G7829E Human IC50
- Assay type: biochemical
- test_conditions: crude membrane fraction of Sf9 cells expressing human DGAT-1; [14C]decanoylCoA; terminated with 5 μl of 1.4% phosphoric acid instead of HCl; average where tested more than once
parameter: pIC50
Value format note: pIC50 is -log10 of concentration (mol/L); just state the number.

Sample COc1nc(N)c2c(n1)CCN(c1ccc(C(C)(C)c3cnco3)cc1)C2=O [Example 1M] — what was its pIC50?
7.95

Sample COc1nc(N)c2c(n1)CCN(c1ccc3c(c1)COC3(C)C)C2=O [Example 1U] — what was its pIC50?
6.64

Sample COc1nc(N)c2c(n1)CCN(c1ccc(C(C)(C)c3cc[nH]n3)cc1)C2=O [Example 1N] — what was its pIC50?
7.50

Sample COc1nc(N)c2c(n1)CCN(c1ccc(C3(C(N)=O)CCC3)cc1)C2=O [Example 5A] — what was its pIC50?
7.10

Sample COc1nc(N)c2c(n1)CCN(c1ccc(C(C)(C)c3ncco3)cc1)C2=O [Example 1L] — what was its pIC50?
7.46

Please examine the following record next.
Sample COc1nc(N)c2c(n1)CCN(c1ccc(C3(C(N)=O)CCCC3)cc1)C2=O [Example 5C] — what was its pIC50?
6.66

###

- assayed_system: Human full-length diacylglycerol:acylCoA acyltransferase 1 (DGAT-1) (Homo sapiens, UniProt O75907)
- Construct: Human full-length diacylglycerol:acylCoA acyltransferase 1 (DGAT-1) was expressed in Sf9 insect cells; made in house; host or cells: Sf9 insect cells (baculovirus); crude membrane/microsome fraction
- protocol_description: DGAT-1 Reduced Microsome Multidose Assay, G7329F Human IC50
- Format: biochemical
- test_conditions: crude membrane fraction of Sf9 cells expressing human DGAT-1; [14C]decanoylCoA; apparent IC50, average where tested more than once
parameter: pIC50
Value format note: pIC50 is -log10 of concentration (mol/L); just state the number.

For orientation, consider the following solved cases.
Sample COc1nc(N)c2c(n1)CCN(c1ccc(C(=O)O)cc1)C2=O [Example 2E] — what was its pIC50?
5.83

Sample COc1nc(N)c2c(n1)CCN(c1ccc(C(F)(F)F)cc1)C2=O [Example 6F] — what was its pIC50?
6.48

***
Sample COc1nc(N)c2c(n1)CCN(c1cccc(C(C)(C)C)c1)C2=O [Example 6C] — what was its pIC50?
7.42

Sample COc1nc(N)c2c(n1)CCN(c1ccc(Cl)c(F)c1)C2=O [Example 9D] — what was its pIC50?
7.00

Sample COc1nc(N)c2c(n1)CCN(c1ccccc1)C2=O [Example 9C] — what was its pIC50?
6.23

Sample COc1nc(N)c2c(n1)CCN(c1ccc(CCC(F)(F)F)cc1)C2=O [Example 9L] — what was its pIC50?
7.11

Sample COc1nc(N)c2c(n1)CCN(c1ccc(C(C)C)cc1)C2=O [Example 6E] — what was its pIC50?
7.77

Sample COc1nc(N)c2c(n1)CCN(c1ccc(C(C)(C)c3nnn[nH]3)cc1)C2=O [Example 3P] — what was its pIC50?
7.68

Sample COc1nc(N)c2c(n1)CCN(c1ccc(C3(C(=O)O)CCC3)cc1)C2=O [Example 1P] — what was its pIC50?
7.17

Sample COc1nc(N)c2c(n1)CCN(c1ccc(C3CC(F)(F)C3)cc1)C2=O [Example 1H] — what was its pIC50?
7.24

Sample COc1nc(N)c2c(n1)CCN(c1ccc(C(C)(C)C#N)cc1)C2=O [Example 3O] — what was its pIC50?
7.05

Sample COc1nc(N)c2c(n1)CCN(c1ccc(CC(C)C)cc1)C2=O [Example 1Z] — what was its pIC50?
8.31

Sample COc1nc(N)c2c(n1)CCN(c1ccc(C(C)(C)CNC(C)=O)cc1)C2=O [Example 3U] — what was its pIC50?
7.07

Sample COc1nc(N)c2c(n1)CCN(c1ccc(C3(C)CCCO3)cc1)C2=O (stereo not drawn) [Example 9K] — what was its pIC50?
7.20

###

- assayed_system: Human full-length diacylglycerol:acylCoA acyltransferase 1 (DGAT-1) (Homo sapiens, UniProt O75907)
- Construct: Human full-length diacylglycerol:acylCoA acyltransferase 1 (DGAT-1) was expressed in Sf9 insect cells; made in house; host or cells: Sf9 insect cells (baculovirus); crude membrane/microsome fraction
- Sequence (O75907 1-488): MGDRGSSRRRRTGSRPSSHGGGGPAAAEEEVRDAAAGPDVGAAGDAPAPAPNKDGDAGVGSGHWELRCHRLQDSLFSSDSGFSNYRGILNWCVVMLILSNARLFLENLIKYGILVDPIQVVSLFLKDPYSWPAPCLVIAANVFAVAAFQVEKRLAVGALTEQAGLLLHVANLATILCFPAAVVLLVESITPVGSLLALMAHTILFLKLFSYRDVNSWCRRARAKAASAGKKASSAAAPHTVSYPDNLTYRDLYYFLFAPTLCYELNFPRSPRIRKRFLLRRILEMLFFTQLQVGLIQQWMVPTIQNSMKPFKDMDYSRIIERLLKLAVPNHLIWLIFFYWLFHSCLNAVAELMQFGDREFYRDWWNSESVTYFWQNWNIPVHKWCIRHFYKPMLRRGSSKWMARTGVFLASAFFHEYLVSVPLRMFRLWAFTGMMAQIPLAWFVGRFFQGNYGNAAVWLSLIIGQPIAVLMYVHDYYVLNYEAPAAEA
- protocol_description: DGAT-1 Reduced Microsome Multidose Assay, G7329F Human IC50
- Assay type: biochemical
- test_conditions: crude membrane fraction of Sf9 cells expressing human DGAT-1; [14C]decanoylCoA; apparent IC50, average where tested more than once
Kindly apply the following: criterion met if IC50 is less than 0.05 µM, criterion not met in every other case.

Example entries begin here.
Check if IC50 falls below 0.05 µM for COc1nc(N)c2c(n1)CCN(c1ccc(C(C)(C)C(=O)O)cc1)C2=O [Example 3D] .
criterion met

Check if IC50 falls below 0.05 µM for COc1nc(N)c2c(n1)CCN(c1ccc(C(C)(C)O)cc1)C2=O [Example 2B] .
criterion not met

Check if IC50 falls below 0.05 µM for COc1nc(N)c2c(n1)CCN(c1ccc(C(C)(C)C(N)=O)cc1)C2=O [Example 3I] .
criterion not met

Check if IC50 falls below 0.05 µM for CCc1ccc(N2CCc3nc(OC)nc(N)c3C2=O)cc1 [Example 1B] .
criterion not met

Check if IC50 falls below 0.05 µM for COc1nc(N)c2c(n1)CCN(c1ccc(CC3CC3)cc1)C2=O [Example 1C] .
criterion met

Check if IC50 falls below 0.05 µM for COc1nc(N)c2c(n1)CCN(c1ccc(C(C)(C)C)cc1F)C2=O [Example 6I] .
criterion met

Check if IC50 falls below 0.05 µM for COc1nc(N)c2c(n1)CCN(c1ccc(C(C)(C)C)c(F)c1)C2=O [Example 6H] .
criterion met

***
Check if IC50 falls below 0.05 µM for CC(C)(C)c1ccc(N2CCc3ncnc(N)c3C2=O)cc1 [Example 11A] .
criterion not met

###

- assayed_system: Human full-length diacylglycerol:acylCoA acyltransferase 1 (DGAT-1) (Homo sapiens, UniProt O75907)
- Construct: Human full-length diacylglycerol:acylCoA acyltransferase 1 (DGAT-1) was expressed in Sf9 insect cells; made in house; host or cells: Sf9 insect cells (baculovirus); crude membrane/microsome fraction
- Sequence (O75907 1-488): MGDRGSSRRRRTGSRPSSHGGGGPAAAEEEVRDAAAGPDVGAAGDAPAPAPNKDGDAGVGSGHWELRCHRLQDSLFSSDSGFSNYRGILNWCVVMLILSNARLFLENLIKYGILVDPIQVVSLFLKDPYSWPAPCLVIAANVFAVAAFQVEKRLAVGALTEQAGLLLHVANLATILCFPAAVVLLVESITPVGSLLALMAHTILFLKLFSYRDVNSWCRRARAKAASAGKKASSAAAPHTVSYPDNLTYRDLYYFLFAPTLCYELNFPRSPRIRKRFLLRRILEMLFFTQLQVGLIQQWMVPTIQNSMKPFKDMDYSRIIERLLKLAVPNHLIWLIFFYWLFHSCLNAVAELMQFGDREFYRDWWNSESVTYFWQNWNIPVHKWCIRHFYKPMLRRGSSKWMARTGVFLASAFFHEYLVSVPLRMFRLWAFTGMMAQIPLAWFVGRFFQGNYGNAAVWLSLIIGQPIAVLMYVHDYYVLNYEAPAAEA
- protocol_description: DGAT-1 Reduced Microsome Multidose Assay, G7829E Human IC50
- Format: biochemical
- test_conditions: crude membrane fraction of Sf9 cells expressing human DGAT-1; [14C]decanoylCoA; terminated with 5 μl of 1.4% phosphoric acid instead of HCl; average where tested more than once
# maps each entry to its IC50
Please reply with the bare figure in nM and do not write the unit itself.

For orientation, consider the following solved cases.
Sample COc1nc(N)c2c(n1)CCN(c1ccc(C3(O)CCCCC3)cc1)C2=O [Example 1V] — what was its IC50?
113

Sample COc1nc(N)c2c(n1)CCN(c1ccc(C3(C#N)CCC3)cc1)C2=O [Example 4A] — what was its IC50?
20.7

***
Sample COc1nc(N)c2c(n1)CCN(c1ccc(C(C)(C)c3ccno3)cc1)C2=O [Example 3C] — what was its IC50?
4.5

Sample CCC(O)(CC)c1ccc(N2CCc3nc(OC)nc(N)c3C2=O)cc1 [Example 1W] — what was its IC50?
34

Sample COc1nc(N)c2c(n1)CCN(c1ccc(C(C)(C)c3ccon3)cc1)C2=O [Example 3B] — what was its IC50?
55

Sample COc1nc(N)c2c(n1)CCN(c1ccc(C(C)(C)c3nnnn3C)cc1)C2=O [Example 3Q] — what was its IC50?
95.3

Sample COc1nc(N)c2c(n1)CCN(c1ccc(C(C)(C)c3ncno3)cc1)C2=O (single isomer, unassigned) [Example 3L] — what was its IC50?
67.3

Sample COc1nc(N)c2c(n1)CCN(c1ccc3c(c1)CC(C)(C)O3)C2=O [Example 9M] — what was its IC50?
1380
